assay: Lipophilicity, logD of compound; assay type: physicochemical; details: octanol/water
Kindly supply the reported logD values for the records listed here.
One number for each entry.

The cases that follow already have their logD on record.
> print(dat)
                        structure.as.smiles  quantitative.result
1  COc1nn([C@H]2C[C@H](C)N(C)C2)cc1-c1cnc(Nc2ccnc(-c3cnn(S(=O)(=O)C4CC4)c3)n2)cc1OC(C)C                  5.4
2  CC(C)Oc1cc(Nc2ccnc(-c3cnn(S(=O)(=O)C4CC4)c3)n2)ncc1-c1cn(C2CCN(C)CC2)nc1OC(F)F                  4.6

Next, consider the following compound.
Task: // Input: COc1nn(C2CCN(C)CC2)cc1-c1cnc(Nc2ccnc(-c3cnn(S(=O)(=O)C4CC4)c3)n2)cc1OC(C)C . Output its logD only.
Output: 4.4

* * *

Would you kindly list fraction unbound for each of these compounds?
test: Plasma protein binding in human; format: ADME, cell-free; conditions: read-out: PPB

> print(dat)
                        structure.as.smiles   result
1  COc1nn([C@H]2C[C@H](C)N(C)C2)cc1-c1cnc(Nc2ccnc(-c3cnn(S(=O)(=O)C4CC4)c3)n2)cc1OC(C)C  < 0.002
2  CC(C)Oc1cc(Nc2ccnc(-c3cnn(S(=O)(=O)C4CC4)c3)n2)ncc1-c1cn(C2CCN(C)CC2)nc1OC(F)F  < 0.002

With those in mind, consider the next compound.
Task: State, in one line, measured fraction unbound of COc1nn(C2CCN(C)CC2)cc1-c1cnc(Nc2ccnc(-c3cnn(S(=O)(=O)C4CC4)c3)n2)cc1OC(C)C
Output: < 0.002

* * *

assay: Solubility of compound at pH 1.2; format: physicochemical; conditions: buffer
ASSAY METRIC: solubility

Example cases with answers are listed next.
> print(dat)
                        structure.as.smiles        result
1  COc1nn([C@H]2C[C@H](C)N(C)C2)cc1-c1cnc(Nc2ccnc(-c3cnn(S(=O)(=O)C4CC4)c3)n2)cc1OC(C)C  > 1100 µg/mL
2  COc1nn(C2CCN(C)CC2)cc1-c1cnc(Nc2ccnc(-c3cnn(S(=O)(=O)C4CC4)c3)n2)cc1OC(C)C  > 1100 µg/mL

Task: Give solubility for the following compound: CC(C)Oc1cc(Nc2ccnc(-c3cnn(S(=O)(=O)C4CC4)c3)n2)ncc1-c1cn(C2CCN(C)CC2)nc1OC(F)F
Output: 1200 µg/mL

* * *

assay: Plasma protein binding in mouse; type: ADME, cell-free; conditions: read-out: PPB
ASSAY METRIC: fraction unbound

Check out these entries, answers already filled in.
> print(dat)
                        structure.as.smiles   result
1  COc1nn([C@H]2C[C@H](C)N(C)C2)cc1-c1cnc(Nc2ccnc(-c3cnn(S(=O)(=O)C4CC4)c3)n2)cc1OC(C)C  < 0.002
2  COc1nn(C2CCN(C)CC2)cc1-c1cnc(Nc2ccnc(-c3cnn(S(=O)(=O)C4CC4)c3)n2)cc1OC(C)C  < 0.002

Query compound follows.
Task: Supply measured fraction unbound of CC(C)Oc1cc(Nc2ccnc(-c3cnn(S(=O)(=O)C4CC4)c3)n2)ncc1-c1cn(C2CCN(C)CC2)nc1OC(F)F in your reply.
Output: < 0.002

* * *

assay: Solubility of compound at pH 6.8; assay type: physicochemical; settings: buffer
ASSAY METRIC: solubility
Record the result as a number with its unit.

Task: Provide only the value of recorded solubility for COc1nn(C2CCN(C)CC2)cc1-c1cnc(Nc2ccnc(-c3cnn(S(=O)(=O)C4CC4)c3)n2)cc1OC(C)C
Output: 15 µg/mL
